Please provide measured Enzyme Activity Endpoint Assay: Fc for the entries that follow.
- TARGET_ENTITY: pooled human IgG (human IgG1,2,3 and 4)
Answers are plain numbers, in ng/µL.

PROTEIN	VALUE
PRT-189 (protein) MANQEIRYSEVTPYHVTSVWTKGVTPPDHDFANFTQGEDVFHAPYVANQGWYDITKTFNGKDDLLCGAATAGNMLHWWFDQNKDQIKRYLEEHPEKQKINFNGEQMFDVKEAIDTKNHQLDSKLFEYFKEKAFPYLSTKHLGVFPDHVIDMFINGYRLSLTNHGPTPVKEGSKDPRGGIFDAVFTRGDQSKLLTSRHDFKEKNLKEISDLIKKELTEGKALGLSHTYANVRINHVINLWGADFDSNGNLKAIYVTDSDSNASIGMKKYFVGVNSAGKVAISAKEIKEDNIGAQVLGLFTLSTGQDSWNQTN	307

Now let's try a different one.
// sample PRT-109 (protein) MRNATEAYAKEVPHTITSVWTKGVTPLTPEQFRYNNEDVIHAPYVAHQGWYDITKTFDGKDNLLCGAATAGNMLHWWFDQNKTEIEAYLSKHPEKQKIIFNNQELFDLKAAIDTKDSQTNSQLFNYFRDKAFPNLSARQLGVMPDLVLDMFINGYYLNVFKTQSTDVNRPYQDKDKRGGIFDAVFTRGDQTTLLTARHDLKNKGLNEISTLIKQELTEGKALALSHTYANVSISHVINLWGADFNAEGNLEAIYVTDSDDNASIGMKKYFVGVNAAGKVAISAKKIEGENIGAQVLGLFTLSSGKDIWQKLS , its Enzyme Activity Endpoint Assay: Fc was 181

# credit: patent US20250027068
